The origin of these recorded values is a melting point compilation (Tetko et al.; mined from patent text by program, amines drawn as free bases though some values may be those of a salt).

Below, each of the compounds is paired with its reported melting point value.

INSERT INTO measurements (entry_smiles, recorded_measurement) VALUES
  ('O=C(NCC(=O)N1CCN(C(=O)c2cc(C(F)(F)F)cc(C(F)(F)F)c2)[C@H](Cc2c[nH]c3ccccc23)C1)c1ccccc1', '123 to 135 °C'),
  ('OC(=S)CCCc1nn(-c2ccccc2)c2c1CCCC2', '105 to 106 °C'),
  ('Cc1c(CC2=C(O)CCC2=O)ccc2ccccc12', '226 to 228 °C'),
  ('COC(=O)[C@H]1[C@@H]2CC[C@@](NC(=O)OC(C)(C)C)(C(=O)OC)[C@@H]21', '193 to 194 °C');

// melting point lookup, compound = `CC(=O)Nc1c(N)cc(C(=O)O)c(O)c1Br` , result: 210 to 211 °C

// melting point lookup, compound = `O=C(CI)N1CCN(C(=O)CI)CC1` , result: 105 to 109 °C

---

quantity: melting point

Some solved cases for reference:
INSERT INTO measurements (compound, quantity, recorded_measurement) VALUES
  ('CN1Cc2cscc2Nc2cc(Cl)c(Cl)cc21', 'melting point', '92 to 93 °C'),
  ('CC(CCCCO)Oc1c(I)cc(I)cc1I (centres undefined)', 'melting point', '79 to 80 °C'),
  ('CCOC(=O)C1CCCCC1Nc1cn[nH]c1 (centres undefined)', 'melting point', '92 to 94 °C'),
  ('CC(=O)Nc1cccc(-n2nc(C#N)c(=O)n(Cc3ccc(Cl)cc3)c2=O)c1', 'melting point', '196 °C'),
  ('CCCNC(=O)c1cncs1', 'melting point', '86 °C');

// melting point lookup, compound = `CCCCCCCCCCCCCCCCCCNC(=O)c1ccccc1N` , result: 89 to 90 °C

// melting point lookup, compound = COCCN(CCOC)CCc1ccc(Nc2ncc3c(n2)-c2ccccc2C(c2cccc(Br)c2)C3)cc1 (centres undefined) , result: 58 to 60 °C

// melting point lookup, compound = `Nc1ncc(-c2cccc(Cl)c2Cl)c(Cl)n1` , result: 228 to 230 °C

// melting point lookup, compound = `CCCNC(=O)c1c(Cl)cccc1OC(C)(CC)CC` , result: 100 to 102 °C

// melting point lookup, compound = `O=C1c2ccccc2-c2c1c(Cl)nc1cc(OCc3ccccc3)ccc21` , result: 212 to 214 °C

// melting point lookup, compound = CC(=O)Nc1ccc(C2=NN(C(=O)C3CC3)C(C)Cc3cc4c(cc32)OCO4)cc1 (centres undefined) , result: 242 to 243 °C

---

Below, each of the molecules is paired with its reported melting point value.

Some solved cases for reference:
INSERT INTO measurements (molecule, recorded_measurement) VALUES
  ('Nc1nc(N)c2[nH]c(C3OC(CO)C(O)C3O)nc2n1 (configuration not stated)', '234 to 237 °C'),
  ('COC(=O)c1ccc(OCCCCCOc2ccc(C#N)cc2)c(OC)c1', '105 to 107 °C'),
  ('CCCCCCCCNc1c(Nc2ccc(CC(C)NC[C@H](O)COc3ccccc3)cc2)c(=O)c1=O (some centres not stated)', '146 to 155 °C'),
  ('C=Cc1cn(-c2c(Cl)cc(C(F)(F)F)cc2Cl)nc1C#N', '75 to 76 °C'),
  ('CCCCCCCCCCCCOC(CCCCCCCCCCCC)COCC(O)COc1ccc(N2CCOCC2)cc1 (configuration not stated)', '49 to 52 °C'),
  ('CCCOc1ccc(C(=O)CN2CCOCC2)cc1-c1nc2c(CCC)nn(C)c2c(=O)[nH]1', '128 to 129 °C');

// melting point lookup, molecule = CCOC(=O)C1=C(C)Nc2nc(N3CCOCC3)nc(N3CCOCC3)c2C1c1ccncc1 (configuration not stated) , result: 209 °C

---

Below, each of the molecules is paired with its reported melting point value.

Some solved cases for reference:
INSERT INTO measurements (molecule, recorded_measurement) VALUES
  ('C=CCOC(=O)CCC(NC(=O)OCC1c2ccccc2-c2ccccc21)C(=O)OCc1ccccc1 (centres undefined)', '66.2 to 67.1 °C'),
  ('Cc1ccc(S(=O)(=O)N(C)c2ccc(Cl)cc2Cl)cc1', '86 to 87 °C'),
  ('CS(=O)(=O)c1cccc(NC(=O)c2cnn3ccc(-c4ccc(C(F)(F)F)cc4)nc23)c1', '254 to 255 °C');

// melting point lookup, molecule = O=C1CN(c2ccc(CC3NC(=O)c4ccccc4NC3=O)cc2O)S(=O)(=O)N1 (centres undefined) , result: 180 °C

// melting point lookup, molecule = `COc1cc2ncc(C#N)c(Nc3ccc4c(C)cc(=O)[nH]c4c3)c2cc1OC` , result: > 300 °C

// melting point lookup, molecule = `Nc1ccc(NC(=O)Nc2cccc(C(F)(F)F)c2)c(O)c1` , result: 200 to 202 °C

// melting point lookup, molecule = `O=C(c1cnc(Cc2ccc(Cl)cc2)[nH]1)N1CCC(c2ccccc2)(c2ccccc2)CC1` , result: 105 to 106 °C

// melting point lookup, molecule = CN1C(=O)C(=O)NCC1(CCOC1CCCCO1)c1ccc(Cl)c(Cl)c1 (centres undefined) , result: 260 °C

// melting point lookup, molecule = `CCOC(=O)C1(NS(=O)(=O)c2ccc3c(Cl)cnc(Cl)c3c2)CCCC1` , result: 127 to 129 °C

---

quantity: melting point

Some solved cases for reference:
INSERT INTO results (compound, recorded_measurement) VALUES
  ('COc1cc2c(cc1OC)NC1=C(C2)C(=O)N(C)CN1', '225 to 230 °C'),
  ('O=C(O)C(=O)CC(=O)c1ccc(Cc2ccc(Cl)c(Cl)c2)cc1', '133 to 140 °C'),
  ('Cc1ccc(F)cc1C(=O)Nc1ccc(C(=O)N2CCc3cn[nH]c3-c3sccc32)c(Cl)c1', '310 to 312 °C');

// melting point lookup, compound = `CNc1cc(F)cc(NC)c1[N+](=O)[O-]` , result: 198 °C

// melting point lookup, compound = `COc1ccc(-c2ccc3cnc(Nc4cc5c(cc4F)CCC(=O)N5)nn23)cn1` , result: 295 °C

// melting point lookup, compound = CN1C2CCCC1CC(c1ccc(I)nn1)C2 (configuration not stated) , result: 163 to 166 °C

// melting point lookup, compound = `O=C(O)c1cc(Oc2ccccc2)ccc1O` , result: 126 to 128 °C

// melting point lookup, compound = `OC1(C23CC4CC(CC(C4)C2)C3)CCCCC1` , result: 166 to 168 °C

// melting point lookup, compound = `CN(C)c1ccc(/C=C/c2ccc(F)cc2)cc1` , result: 197 to 198 °C

// melting point lookup, compound = `O=C(Nc1ccc(OC(F)(F)F)cc1)NC1CCN(C(=O)c2ccc(Cl)nc2)CC1` , result: 208 to 209 °C

// melting point lookup, compound = `CC(=O)c1cc(Cl)sc1S(=O)(=O)Nc1ccc(CCO)cc1` , result: 112 to 116 °C

// melting point lookup, compound = `CCOc1nc2ncnn2c2c1cnc1c2cnn1CC` , result: 196 to 197 °C

// melting point lookup, compound = `COc1c(C)c(C)c(OC)c(Cc2ccccc2)c1C` , result: 53 to 54 °C

// melting point lookup, compound = `CC(C)(C)OC(=O)NCCC[C@H](NC(=O)OC(C)(C)C)C(=O)NCCCC(c1ccc(F)cc1)c1ccc(F)cc1` , result: 54 to 59 °C

// melting point lookup, compound = `Cc1cc2c(c(C)c1NC(=O)OC(C)(C)C)CCO2` , result: 121 to 122 °C

// melting point lookup, compound = `Cc1ccc(-c2c(CNC(=O)OC(C)(C)C)c(CC(C)(C)C)nc(C)c2C(=O)O)cc1` , result: 216 to 217 °C

// melting point lookup, compound = `c1ccc(-c2cn3c(nc4ccccc43)s2)nc1` , result: 222 to 224 °C

// melting point lookup, compound = O=C1c2c(n3c4c(cccc24)OCC3c2ccccc2)CCC1(Cl)Cl (configuration not stated) , result: 104 °C

// melting point lookup, compound = N#Cc1nn(-c2c(Cl)cc(Cl)cc2Cl)cc1C1CC1(Cl)Cl (configuration not stated) , result: 158 °C

// melting point lookup, compound = `N[C@@H](Cc1cccc(Oc2ccc(Oc3ccc(O)cc3)cc2)c1)C(=O)O` , result: 67 to 71 °C

// melting point lookup, compound = `CCC(CC)N(O)C(=O)Nc1cc(C(F)(F)F)cc(C(F)(F)F)c1` , result: 115 to 116 °C

// melting point lookup, compound = `C[C@H]1C(=O)Nc2ccc(Cl)cc2N1C(=O)Oc1ccc(F)cc1` , result: 168 to 170 °C
